- Test system: SK-MEL-2 melanoma
- assay overview: NCI tumour cell line growth inhibition, 48 h
metric name: TGI

Asked: Need TGI of `CCC(=O)Nc1ccc(N2C(=O)/C(=C/c3ccc(OC)cc3)N=C2c2ccccc2)cc1` , thanks.
Given back: > 50 µM

Asked: Requested read-out: TGI. Entry: C[C@@H]1O[C@@H](O[C@@H]2[C@@H](O)[C@H](OCCc3ccc(O)c(O)c3)O[C@H](CO)[C@H]2OC(=O)/C=C/c2ccc(O)c(O)c2)[C@H](O)[C@H](OC2OC[C@](O)(CO)[C@H]2O)[C@H]1O (stereo not given in full)
Given back: > 100 µM

Asked: Report TGI for C=CCOc1ccc(C2C(C(=O)OC)C(=O)CC(O)(c3ccccc3)C2C(=O)OC)cc1OC (stereo not given) please.
Given back: > 100 µM

Asked: Form field: reported TGI of `CC1(C)CC(=O)c2c(nc3c4c([nH]c(-c5ccc(Br)cc5)c24)CC(C)(C)C3)C1`
Given back: > 100 µM

Asked: Need TGI, item N#CCCC1(CCC#N)CCCCCCCCC(CCC#N)(CCC#N)C(O)C1O (stereo not given)
Given back: > 100 µM

Asked: Please look up its TGI: COC(=O)Cc1c(-c2c(CC(=O)OC)c3ccccc3n2C2OC(COC(C)=O)C(OC(C)=O)C(OC(C)=O)C2OC(C)=O)[nH]c2ccccc12 (stereo not given)
Given back: > 100 µM

Asked: Reported TGI, molecule OC(c1cccnc1Cl)c1nc2ccccc2c2ccnc(Cl)c12 (stereo not given) : ____
Given back: > 100 µM

Asked: For `O=c1[nH]c2nc3ccccc3c(=O)n2/c1=C/c1ccco1` , what is its reported TGI?
Given back: > 100 µM

Asked: Any idea what its TGI is? The molecule is CC1CC(C#N)=C2NCCN2C1=O (stereo not given)
Given back: > 100 µM

Asked: What measured TGI goes with Cc1ccc(C2C3Cc4ccccc4C3=NN2c2ccc(S(=O)(=O)/N=c3\scc(-c4ccccc4)n3-c3ccccc3)cc2)cc1 (stereo not given) ?
Given back: 52.6 µM

Asked: Which measured TGI value corresponds to `COc1cc2c3c([nH]c2c(OC)c1OC)CCN(Cc1ccccc1)C3` ?
Given back: 47.1 µM

Asked: // lookup TGI for `CN(CCCNC(=O)c1cc(-c2ccccc2)nc2ccccc12)CCCNC(=O)c1cc(-c2ccccc2)nc2ccccc12`
Given back: 3.67 µM

Asked: I have this molecule here, CC(C)(C)OC(=O)NCCCCC(N)NC(=O)c1ccccc1 (stereo not given) , and I need its recorded TGI.
Given back: > 100 µM

Asked: Entry `Nc1nc2c(C(=O)O)c3ccc([N+](=O)[O-])cc3c(=O)n2c2ccccc12` : reported TGI = ?
Given back: 79.1 µM

Asked: Report TGI for `CCCC(S(=O)(=O)c1ccccc1)S(=O)(=O)c1ccccc1` please.
Given back: > 100 µM
